meta.source: patent US11078197B2

Consider compounds characterized by their pIC50 with ROCK2 (Homo sapiens (Human), UniProt O75116).
Sequence (O75116 whole entry, species assumed): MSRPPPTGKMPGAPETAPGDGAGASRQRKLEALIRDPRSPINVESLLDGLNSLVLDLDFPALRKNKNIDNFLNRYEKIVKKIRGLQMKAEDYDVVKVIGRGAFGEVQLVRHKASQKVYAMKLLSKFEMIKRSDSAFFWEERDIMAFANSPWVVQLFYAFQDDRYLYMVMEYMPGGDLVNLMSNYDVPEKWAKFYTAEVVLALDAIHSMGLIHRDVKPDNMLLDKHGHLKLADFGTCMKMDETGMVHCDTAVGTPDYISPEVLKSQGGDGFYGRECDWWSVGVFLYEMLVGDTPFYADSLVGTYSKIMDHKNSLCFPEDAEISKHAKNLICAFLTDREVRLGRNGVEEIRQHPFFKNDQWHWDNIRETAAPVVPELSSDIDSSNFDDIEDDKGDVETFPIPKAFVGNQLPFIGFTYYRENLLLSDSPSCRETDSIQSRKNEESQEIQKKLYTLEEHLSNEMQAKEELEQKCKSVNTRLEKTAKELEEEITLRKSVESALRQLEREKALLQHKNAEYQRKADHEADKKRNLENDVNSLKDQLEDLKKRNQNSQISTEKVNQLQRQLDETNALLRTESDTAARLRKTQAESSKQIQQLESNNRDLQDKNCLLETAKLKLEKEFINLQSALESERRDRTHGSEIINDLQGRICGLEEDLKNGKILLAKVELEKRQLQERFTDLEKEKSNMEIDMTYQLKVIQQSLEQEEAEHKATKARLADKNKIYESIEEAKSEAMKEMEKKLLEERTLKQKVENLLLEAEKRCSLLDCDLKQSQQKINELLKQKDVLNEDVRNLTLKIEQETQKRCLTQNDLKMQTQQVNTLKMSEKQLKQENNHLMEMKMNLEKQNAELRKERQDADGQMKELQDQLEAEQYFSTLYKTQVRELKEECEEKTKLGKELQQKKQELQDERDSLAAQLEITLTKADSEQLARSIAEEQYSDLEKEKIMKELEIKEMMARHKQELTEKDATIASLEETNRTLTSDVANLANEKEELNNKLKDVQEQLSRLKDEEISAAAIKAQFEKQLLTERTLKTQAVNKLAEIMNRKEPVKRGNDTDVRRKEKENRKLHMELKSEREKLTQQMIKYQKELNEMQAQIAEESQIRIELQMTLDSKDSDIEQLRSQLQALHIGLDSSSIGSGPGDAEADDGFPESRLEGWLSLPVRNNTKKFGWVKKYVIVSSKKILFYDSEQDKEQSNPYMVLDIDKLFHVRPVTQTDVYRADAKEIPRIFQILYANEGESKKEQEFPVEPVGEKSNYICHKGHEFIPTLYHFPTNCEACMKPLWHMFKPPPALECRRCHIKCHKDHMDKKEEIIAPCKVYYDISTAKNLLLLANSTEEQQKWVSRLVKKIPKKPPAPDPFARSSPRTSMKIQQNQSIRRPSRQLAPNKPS
Just the number, please; pIC50 means minus log10 of the concentration in mol/L.

Req: Please look up its pIC50: NC(=O)c1sc(C2CC2)nc1O[C@H]1CC2(C[C@H](NC(=O)c3cnn4cc(OCC(F)(F)F)ccc34)C2)C1 (stereo partly drawn)
Resp: 7.94

Req: NC(=O)c1c(O[C@H]2C[C@@]3(C[C@H](NC(=O)c4cnn5cc(OCC(O)(C(F)(F)F)C(F)(F)F)ccc45)C3)C2)nn2ccccc12 (stereo partly drawn) ?
Resp: 6.62

Req: Would you kindly repeat that for CC(C)(O)COc1ccc2c(C(=O)N[C@H]3C[C@]4(C3)C[C@H](Oc3nn(CCCN)cc3C(N)=O)C4)cnn2c1C1CC1 (stereo partly drawn) ?
Resp: 7.86

Req: Now the compound Cc1nc(O[C@H]2C[C@@]3(C[C@H](NC(=O)c4cnn5cc(N6CC(CO)(CCl)C6)ccc45)C3)C2)c(C(N)=O)s1 (stereo partly drawn)
Resp: 7.76

Req: Next compound up: CC(C)(O)COc1ccc2c(C(=O)NC3CC4(C3)CC(Oc3nn(CC5CCNCC5)cc3C(N)=O)C4)cnn2c1C1CC1 (stereo not drawn)
Resp: 8.17

Req: Same for Cn1ncc2cc(C(N)=O)c(O[C@H]3C[C@@]4(C[C@H](NC(=O)c5nn(CC(F)F)c6cc(OCC(C)(C)O)ccc56)C4)C3)nc21 (stereo partly drawn)
Resp: 8.96

Req: Next record, please: Cc1csc2cc(C(N)=O)c(O[C@H]3C[C@@]4(C[C@H](NC(=O)c5cnn6cc(OCC(C)(C)O)ccc56)C4)C3)nc12 (stereo partly drawn)
Resp: 7.92

Req: Input COc1nc(O[C@H]2C[C@@]3(C[C@H](NC(=O)c4cnn(-c5ccc(C(F)(F)F)cn5)c4C)C3)C2)c(C(N)=O)s1 (stereo partly drawn)
Resp: 6.94

Req: Please give the result for N#Cc1cccc(C(=O)N[C@H]2C[C@]3(C2)C[C@H](Oc2nc4ccsc4cc2C(N)=O)C3)c1 (stereo partly drawn) too.
Resp: 8.01

###

Parameter pIC50, tested on ROCK2 (Homo sapiens (Human)), listed per item.
Convention used: pIC50 is expressed as -log10 of the molar concentration.

Req: Given the entry Cc1ccc2c(C(N)=O)c(O[C@H]3C[C@@]4(C[C@H](NC(=O)c5nn(C(F)F)c6cc(OCC(C)(C)O)ccc56)C4)C3)nn2c1 (some centres unmarked) [Example 126] , what pIC50 was observed with ROCK2 (Homo sapiens (Human))?
Resp: 7.33

Req: Same question for NC(=O)c1cc2sccc2nc1OC1CC2(CC(NC(=O)C3CCC(C(F)(F)F)CC3)C2)C1 (centres unmarked) [Example 9] please.
Resp: 6.46

Req: Moving on to Cn1cc(C(N)=O)c(OC2CC3(CC(NC(=O)c4cnn5cc(OCCC(F)(F)F)ccc45)C3)C2)n1 (centres unmarked) [Example 4]
Resp: 7.70

Req: Also check Cc1ccn2nc(O[C@H]3C[C@@]4(C[C@H](NC(=O)c5nn(C(F)F)c6cc(OCC(C)(C)O)ccc56)C4)C3)c(C(N)=O)c2c1 (some centres unmarked) [Example 132]
Resp: 6.65

Req: What about this compound? CC(C)(O)COc1ccc2c(C(=O)N[C@H]3C[C@]4(C3)C[C@H](Oc3nn5cc(F)ccc5c3C(N)=O)C4)nn(C(F)F)c2c1 (some centres unmarked) [Example 128]
Resp: 7.08
